Here the recorded IC50 is given for each entry.
- assayedSystem: human platelet rich plasma (PRP) (Homo sapiens, UniProt P05106+P08514)
- Sequence (P08514 32-1039): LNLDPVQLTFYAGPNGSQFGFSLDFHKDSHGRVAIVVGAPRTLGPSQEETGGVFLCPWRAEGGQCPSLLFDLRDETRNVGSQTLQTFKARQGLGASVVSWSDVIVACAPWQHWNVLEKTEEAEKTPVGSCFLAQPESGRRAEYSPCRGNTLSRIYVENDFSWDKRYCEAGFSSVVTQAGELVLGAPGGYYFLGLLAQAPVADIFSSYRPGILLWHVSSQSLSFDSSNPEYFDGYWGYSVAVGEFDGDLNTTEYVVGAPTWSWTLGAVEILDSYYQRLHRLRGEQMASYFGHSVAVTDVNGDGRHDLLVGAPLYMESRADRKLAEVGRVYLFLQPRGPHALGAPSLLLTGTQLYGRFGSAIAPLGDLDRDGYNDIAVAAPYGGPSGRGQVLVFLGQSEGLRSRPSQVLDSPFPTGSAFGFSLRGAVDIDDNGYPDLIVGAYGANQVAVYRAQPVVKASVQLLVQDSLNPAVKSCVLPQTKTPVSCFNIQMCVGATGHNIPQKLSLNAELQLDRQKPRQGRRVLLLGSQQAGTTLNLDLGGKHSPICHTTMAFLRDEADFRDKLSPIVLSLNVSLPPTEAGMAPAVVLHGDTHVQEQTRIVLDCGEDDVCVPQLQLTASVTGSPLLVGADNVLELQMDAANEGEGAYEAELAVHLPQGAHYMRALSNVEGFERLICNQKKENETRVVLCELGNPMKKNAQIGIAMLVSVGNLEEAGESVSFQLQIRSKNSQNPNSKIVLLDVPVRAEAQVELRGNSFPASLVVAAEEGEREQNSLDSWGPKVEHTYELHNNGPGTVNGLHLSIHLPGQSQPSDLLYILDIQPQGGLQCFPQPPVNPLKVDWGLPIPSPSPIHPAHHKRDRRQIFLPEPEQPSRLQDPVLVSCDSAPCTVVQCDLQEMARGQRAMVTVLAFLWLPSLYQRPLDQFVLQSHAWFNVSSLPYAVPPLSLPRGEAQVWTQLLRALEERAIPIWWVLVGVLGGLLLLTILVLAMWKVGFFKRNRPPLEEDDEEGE
- Sequence (P05106 27-788): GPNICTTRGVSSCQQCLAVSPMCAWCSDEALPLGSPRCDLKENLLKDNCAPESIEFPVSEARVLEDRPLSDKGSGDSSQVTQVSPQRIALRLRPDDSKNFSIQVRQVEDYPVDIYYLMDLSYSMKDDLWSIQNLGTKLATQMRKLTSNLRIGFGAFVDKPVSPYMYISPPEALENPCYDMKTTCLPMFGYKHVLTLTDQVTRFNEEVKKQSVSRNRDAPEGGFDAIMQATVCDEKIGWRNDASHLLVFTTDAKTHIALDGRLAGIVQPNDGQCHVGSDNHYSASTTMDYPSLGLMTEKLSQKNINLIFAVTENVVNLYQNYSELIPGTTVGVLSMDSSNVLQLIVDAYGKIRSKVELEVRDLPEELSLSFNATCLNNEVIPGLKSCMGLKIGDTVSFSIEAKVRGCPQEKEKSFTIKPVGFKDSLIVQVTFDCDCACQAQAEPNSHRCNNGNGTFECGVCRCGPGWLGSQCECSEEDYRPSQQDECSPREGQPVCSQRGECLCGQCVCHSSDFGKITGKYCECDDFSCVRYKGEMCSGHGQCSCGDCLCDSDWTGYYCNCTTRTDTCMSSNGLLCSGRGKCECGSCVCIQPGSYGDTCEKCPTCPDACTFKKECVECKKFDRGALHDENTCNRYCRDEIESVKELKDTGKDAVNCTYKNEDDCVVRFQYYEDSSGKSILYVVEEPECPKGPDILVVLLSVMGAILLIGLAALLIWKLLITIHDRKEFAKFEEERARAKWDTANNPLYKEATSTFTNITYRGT
- protocol: In Vitro Human Platelet Aggregation Assay
- Format: cell-based
- assayContext: human PRP; read-out: Human Platelet Aggregation IC50
*1 amine or outer side, *2 acyl side, *3 side chain or, on linkers, in order; H or OH if unused. Where a SMILES comes first, the peptide text is derived from it. Bridges are numbered along the chain shown (N, C = ends). [ ]: non-standard residue; d: D form. The star is where a group is joined. Ethylenediamine = C(CN[*:2])N[*:1]; Aad = N[C@@H](CCCC(=O)O)C(=O)O; Pen = CC(C)(S)[C@H](N)C(=O)O; dOrn = NCCC[C@@H](N)C(=O)O; NH(CH2)5NH2 = NCCCCCN*; NH(CH2)4NH2 = NCCCCN*; NH(CH2)3NH2 = NCCCN*
Numeric only. Scale: µM

Reference set (10 entries):
1. N=C(N)NCCC[C@@H]1NC(=O)[C@@H](Cc2ccc(O)cc2)NC(=O)CSC[C@@H](C(=O)O)NC(=O)[C@H](CC(=O)O)NC(=O)CNC1=O [7/46] ({CH2CO}-[dY]RGDC-OH; thioether N-5) | 0.15
2. N=C(N)NCCC[C@@H]1NC(=O)[C@@H](Cc2ccc(O)cc2)NC(=O)CSC[C@@H](C(=O)NCCN)NC(=O)[C@H](CC(=O)O)NC(=O)CNC1=O [8/23] ({CH2CO}-[dY]RGDC-Ethylenediamine; thioether N-5) | 0.47
3. N=C(N)NCCC[C@@H]1NC(=O)[C@@H](Cc2ccc(O)cc2)NC(=O)CSC[C@@H](C(=O)N[C@H](CCCN)C(N)=O)NC(=O)[C@H](CC(=O)O)NC(=O)CNC1=O [7/6] ({CH2CO}-[dY]RGDC[dOrn]-NH2; thioether N-5) | 1.18
4. N=C(N)NCCC[C@@H]1NC(=O)[C@@H](Cc2ccc(O)cc2)NC(=O)C(CCCCN)SC[C@@H](C(=O)O)NC(=O)[C@H](CC(=O)O)NC(=O)CNC1=O (single isomer, unassigned) [9/10] | 0.498
5. NCCCC[C@@H]1NC(=O)[C@@H](Cc2ccc(O)cc2)NC(=O)C(c2ccccc2)SC[C@@H](C(=O)O)NC(=O)[C@H](CC(=O)O)NC(=O)CNC1=O (single isomer, unassigned) | 0.22
6. N=C(N)NCCC[C@@H]1NC(=O)[C@@H](Cc2ccc(O)cc2)NC(=O)CSC[C@@H](C(=O)N[C@@H](CCC(N)=O)C(N)=O)NC(=O)[C@H](CC(=O)O)NC(=O)CNC1=O [7/27] ({CH2CO}-[dY]RGDCQ-NH2; thioether N-5) | 1.76
7. N=C(N)NCCC[C@@H]1NC(=O)[C@@H](Cc2ccc(O)cc2)NC(=O)CSC[C@@H](C(=O)NCCCCN)NC(=O)[C@H](CC(=O)O)NC(=O)CNC1=O [8/12] ({CH2CO}-[dY]RGDC-{NH(CH2)4NH2}; thioether N-5) | 0.39
8. N=C(N)NCCC[C@@H]1NC(=O)[C@@H](Cc2ccc(O)cc2)NC(=O)CSC[C@@H](C(=O)N[C@@H](CCCCN)C(N)=O)NC(=O)[C@H](CC(=O)O)NC(=O)CNC1=O [7/3] ({CH2CO}-[dY]RGDCK-NH2; thioether N-5) | 0.32
9. N=C(N)NCCC[C@@H]1NC(=O)[C@@H](Cc2ccc(O)cc2)NC(=O)CSC[C@@H](C(=O)NCCCN)NC(=O)[C@H](CC(=O)O)NC(=O)CNC1=O [8/22] ({CH2CO}-[dY]RGDC-{NH(CH2)3NH2}; thioether N-5) | 0.387
10. CC1(C)SCC(=O)N[C@H](Cc2ccc(O)cc2)C(=O)N[C@@H](CCCCN)C(=O)NCC(=O)N[C@@H](CC(=O)O)C(=O)N[C@@H]1C(=O)N[C@@H](CCCCN)C(N)=O [7/17] ({CH2CO}-[dY]KGD[Pen]K-NH2; thioether N-5) | 0.09

Measured IC50, N=C(N)NCCC[C@@H]1NC(=O)[C@@H](Cc2ccc(O)cc2)NC(=O)C(CCCCN)SC[C@@H](C(=O)O)NC(=O)[C@H](CC(=O)O)NC(=O)CNC1=O (single isomer, unassigned) [9/11] : 3.18

Measured IC50, N=C(N)NCCC[C@@H]1NC(=O)[C@@H](Cc2ccc(O)cc2)NC(=O)CSC[C@@H](C(=O)NCCCCCN)NC(=O)[C@H](CC(=O)O)NC(=O)CNC1=O [8/13] ({CH2CO}-[dY]RGDC-{NH(CH2)5NH2}; thioether N-5) : 0.59

Measured IC50, N=C(N)NCCC[C@@H]1NC(=O)[C@@H](Cc2ccc(O)cc2)NC(=O)CCC[C@@H](C(=O)N[C@@H](CCCCN)C(N)=O)NC(=O)[C@H](CC(=O)O)NC(=O)CNC1=O [10/20] ([dY]RGD[Aad]K-NH2; lactam N-5) : 0.183

Measured IC50, N=C(N)NCCC[C@@H]1NC(=O)[C@@H](Cc2ccc(O)cc2)NC(=O)CSC[C@@H](C(=O)N[C@@H](CCCCN)C(=O)O)NC(=O)[C@H](CC(=O)O)NC(=O)CNC1=O [7/25] ({CH2CO}-[dY]RGDCK-OH; thioether N-5) : 0.37

Values were extracted from patent US5493007A.
